test-system: UniProt:P61105
run-description: Rab2 wildtype GTP-binding inhibitors, dose response, biochemical, GST-Rab2 beads, Bodipy-FL-GTP, flow cytometry, multiplex (AID 1337)
Below, each entry is listed with its recorded pEC50.
pEC50 here: minus log base 10 of the concentration, concentration in moles per litre.

As a guide, the following entries are already answered.
molecule | observable | val
COc1ccc(C2CC(c3ccccc3)=NN2c2ccc(S(N)(=O)=O)cc2)cc1 (stereo not drawn) | pEC50 | 6.15
N=C(N)NS(=O)(=O)c1ccc(NC(=S)NC(=O)c2ccc3c(c2)OCO3)cc1 | pEC50 | 6.13
O=C1C([N+](=O)[O-])=Cc2oc3c(c2C1/C=N/Cc1ccccc1)CCCC3 (stereo not drawn) | pEC50 | 5.40
O=C(O)c1ccccc1NCCc1ccc(Cl)cc1 | pEC50 | 6.13
COCCn1c(=S)[nH]c2cc(C(=O)N3CCc4ccccc4C3)ccc2c1=O | pEC50 | 6.07

Ask: // query pEC50 value for entry Cc1ccccc1NC(=O)C1CCCN1S(=O)(=O)c1cccc2cccnc12 (stereo not drawn)
Result: 5.46

Ask: // query pEC50 value for entry CC(C)C(NCc1c(Cl)cccc1Cl)C(=O)O (stereo not drawn)
Result: 5.27

Ask: // query pEC50 value for entry `O=C(O)/C=C/c1cn(Cc2ccccc2)nc1-c1cccs1`
Result: 5.44

* * *

test-system: Ras-related protein Rab-2A (Canis lupus familiaris, UniProt P61105)
Sequence (P61105 whole entry): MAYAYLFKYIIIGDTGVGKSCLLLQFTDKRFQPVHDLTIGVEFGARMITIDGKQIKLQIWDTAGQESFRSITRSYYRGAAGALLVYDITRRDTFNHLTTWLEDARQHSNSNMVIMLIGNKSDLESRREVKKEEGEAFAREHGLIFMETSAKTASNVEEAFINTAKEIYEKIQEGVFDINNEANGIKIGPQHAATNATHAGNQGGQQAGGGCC
run-description: Rab2 wildtype GTP-binding inhibitors, dose response, biochemical, GST-Rab2 beads, Bodipy-FL-GTP, flow cytometry, multiplex (AID 1337)
Below, each entry is listed with its recorded EC50.
Express your answer in µM, writing the number without its unit.

compound | output-unit | EC50
Cc1ccc(C2=NN(S(=O)(=O)c3ccccc3)C(c3ccccc3O)C2)cc1 (stereo not given) | µM | 1.69

Ask: // query EC50 value for entry `CCOc1ccc(/C=C2\SC(N3CCc4ccccc4C3)=NC2=O)cc1`
Result: 35.9

Ask: // query EC50 value for entry `Cc1cc(C)c(C)c(C(=O)c2ccccc2C(=O)O)c1C`
Result: 6.26

Ask: // query EC50 value for entry CCS(=O)(=O)N1N=C(c2cccc(NS(C)(=O)=O)c2)CC1c1ccc(C)cc1 (stereo not given)
Result: 2.67

Ask: // query EC50 value for entry `COC(=O)c1c(-n2c(O)c3c(c2O)[C@]2(C(=O)Nc4c(C)cc(C)cc42)N2CCC[C@@H]32)sc(C)c1C`
Result: 1.99

Ask: // query EC50 value for entry `CCCN1C(=O)/C(=C/C=C2\N(CC)c3ccccc3C2(C)C)SC1=S`
Result: 5.42

Ask: // query EC50 value for entry OC(CNCCc1c[nH]c2ccccc12)Cn1c2ccc(Cl)cc2c2cc(Cl)ccc21 (stereo not given)
Result: 26.3

Ask: // query EC50 value for entry `COc1ccc(-c2cc(C#N)nc(N3CCNCC3)n2)cc1`
Result: 30.9

Ask: // query EC50 value for entry `O=C(O)c1ccccc1Sc1ncnc2sc3c(c12)CCC3`
Result: 2.76

Ask: // query EC50 value for entry `Cc1nn(Cc2ccccc2)c(Cl)c1C(=O)O`
Result: 4.88
